Hey, just so you know, these numbers are from patent US20240067651A1.

Run description: Stability in Simulated Gastric Fluid (SGF)
Assay type: in vitro ADME
Set-up: key: % parent compound remaining relative to 0-minute sample
Condition context: % remaining at 1 h in simulated gastric fluid
I'd appreciate it if you could supply SGF values for the items below.
Give bare numbers, in % remaining.

For each of the compounds below, state SGF.
1. CC(C)OCCn1c(=S)n(COC(=O)OCCOCCNC(=O)OC(C)(C)C)c(=O)c2c1ccn2COC(=O)OCCOCCNC(=O)OC(C)(C)C [Example 122]
2. CC(C)OCCn1c(=S)[nH]c(=O)c2c1ccn2COC(=O)CCNC(=O)CN(C)C(=O)OC(C)(C)C.O=C(O)C(F)(F)F [Example 54]
3. CC(C)OCCn1c(=S)[nH]c(=O)c2c1ccn2COC(=O)CCNC(=O)CN(C)C(=O)CNC(=O)OC(C)(C)C.O=C(O)C(F)(F)F [Example 58]

**A:**
[85, 93, 77]
